FYI, the data here is from ChEMBL document CHEMBL3739314.

Target: Prothrombin (Homo sapiens) (UniProt P00734)
Assay: Inhibition of thrombin (unknown origin) using Boc-Val-Pro-Arg-AMC as substrate at 25 uM preincubated with protein for 15 mins followed by substrate addition measured for 10 mins by continuous fluorimetric assay relative to control
Activity calls are given as the source filed them. The calls are words filed in the database; no cut-off is given here.

TEST SMILES: N=C(N)NCCC[C@H](NC(=O)c1ccccc1)C(=O)N[C@@H](CCCCN)C(=O)N[C@@H](C(N)=O)c1ccc(OCc2ccc(OC(F)(F)F)cc2)cc1
TEST TARGET: Prothrombin (Homo sapiens) (UniProt P00734)
inhibition: < 30%
--
TEST SMILES: N=C(N)NCCC[C@H](NC(=O)c1ccccc1)C(=O)N[C@@H](CCCCN)C(=O)N[C@@H](C(N)=O)c1ccc(OCc2ccc3ccccc3c2)cc1
TEST TARGET: Prothrombin (Homo sapiens) (UniProt P00734)
inhibition: < 30%
--
TEST SMILES: N=C(N)NCCC[C@H](NC(=O)C1CCC1)C(=O)N[C@@H](CCCCN)C(=O)N[C@@H](C(N)=O)c1ccc(OCc2ccccc2)cc1
TEST TARGET: Prothrombin (Homo sapiens) (UniProt P00734)
inhibition: < 30%
--
TEST SMILES: N=C(N)NCCC[C@H](NC(=O)c1cc(-c2ccccc2)cs1)C(=O)N[C@@H](CCCCN)C(=O)N[C@@H](C(N)=O)c1ccc(OCc2ccccc2)cc1
TEST TARGET: Prothrombin (Homo sapiens) (UniProt P00734)
inhibition: < 30%
--
TEST SMILES: N=C(N)NCCC[C@H](NC(=O)c1sccc1Cl)C(=O)N[C@@H](CCCCN)C(=O)N[C@@H](C(N)=O)c1ccc(OCc2ccc(Cl)cc2)cc1
TEST TARGET: Prothrombin (Homo sapiens) (UniProt P00734)
inhibition: inactive
--
TEST SMILES: N=C(N)NCCC[C@H](NC(=O)c1scc2c1OCCO2)C(=O)N[C@@H](CCCCN)C(=O)N[C@@H](C(N)=O)c1ccc(OCc2ccccc2)cc1
TEST TARGET: Prothrombin (Homo sapiens) (UniProt P00734)
inhibition: < 30%
--
TEST SMILES: N=C(N)NCCC[C@H](NC(=O)c1ccco1)C(=O)N[C@@H](CCCCN)C(=O)N[C@@H](C(N)=O)c1ccc(OCc2ccccc2)cc1
TEST TARGET: Prothrombin (Homo sapiens) (UniProt P00734)
inhibition: < 30%
--
TEST SMILES: N=C(N)NCCC[C@H](NC(=O)c1cc2ccsc2s1)C(=O)N[C@@H](CCCCN)C(=O)N[C@@H](C(N)=O)c1ccc(OCc2ccccc2)cc1
TEST TARGET: Prothrombin (Homo sapiens) (UniProt P00734)
inhibition: < 30%
--
TEST SMILES: COc1cccc(COc2ccc([C@@H](NC(=O)[C@H](CCCCN)NC(=O)[C@H](CCCNC(=N)N)NC(=O)c3ccc(-c4cccs4)s3)C(N)=O)cc2)c1
TEST TARGET: Prothrombin (Homo sapiens) (UniProt P00734)
inhibition: inactive
--
TEST SMILES: N=C(N)NCCC[C@H](NC(=O)/C=C/c1ccc(Cl)cc1)C(=O)N[C@@H](CCCCN)C(=O)N[C@@H](C(N)=O)c1ccc(OCc2ccccc2)cc1
TEST TARGET: Prothrombin (Homo sapiens) (UniProt P00734)
inhibition: < 30%
--
TEST SMILES: N=C(N)NCCC[C@H](NC(=O)c1ccccc1)C(=O)N[C@@H](CCCCN)C(=O)N[C@@H](C(N)=O)c1ccc(OCc2ccccc2Cl)cc1
TEST TARGET: Prothrombin (Homo sapiens) (UniProt P00734)
inhibition: < 30%
--
TEST SMILES: N=C(N)NCCC[C@H](NC(=O)c1cc2ccccc2s1)C(=O)N[C@@H](CCCCN)C(=O)N[C@@H](C(N)=O)c1ccc(OCc2ccc(C(F)(F)F)cc2)cc1
TEST TARGET: Prothrombin (Homo sapiens) (UniProt P00734)
inhibition: inactive
--
TEST SMILES: N=C(N)NCCC[C@H](NC(=O)c1cccs1)C(=O)N[C@@H](CCCCN)C(=O)N[C@@H](C(N)=O)c1ccc(OCc2ccc(Br)cc2)cc1
TEST TARGET: Prothrombin (Homo sapiens) (UniProt P00734)
inhibition: inactive
--
TEST SMILES: N=C(N)NCCC[C@H](NC(=O)c1cc2ccccc2s1)C(=O)N[C@@H](CCCCN)C(=O)N[C@@H](C(N)=O)c1ccc(OCc2c(Cl)cccc2Cl)cc1
TEST TARGET: Prothrombin (Homo sapiens) (UniProt P00734)
inhibition: inactive
--
TEST SMILES: N=C(N)NCCC[C@H](NC(=O)c1cccs1)C(=O)N[C@@H](CCCCN)C(=O)N[C@@H](C(N)=O)c1ccc(OCC(=O)c2ccc(Br)cc2)cc1
TEST TARGET: Prothrombin (Homo sapiens) (UniProt P00734)
inhibition: inactive
--
TEST SMILES: CC(=O)c1ccc(C(=O)N[C@@H](CCCNC(=N)N)C(=O)N[C@@H](CCCCN)C(=O)N[C@@H](C(N)=O)c2ccc(OCc3ccccc3)cc2)cc1
TEST TARGET: Prothrombin (Homo sapiens) (UniProt P00734)
inhibition: < 30%
--
TEST SMILES: CC(C)(C)c1ccc(COc2ccc([C@@H](NC(=O)[C@H](CCCCN)NC(=O)[C@H](CCCNC(=N)N)NC(=O)c3ccccc3)C(N)=O)cc2)cc1
TEST TARGET: Prothrombin (Homo sapiens) (UniProt P00734)
inhibition: < 30%
